Record form. Attribute: half-life at 1 μM. Fill in for each entry.
Test: Liver microsomal stability in vitro, mouse
Format: in vitro ADME
Settings: pH 7.4; mouse liver microsomes 0.5 mg protein/mL, 1 μM test compound, 37° C.; read-out: Mouse T1/2
Method: Evaluation of in vitro liver microsomal stability of the compound of the present disclosure was tested by the following method: Buffer: 100 mM potassium phosphate buffer, pH 7.4; […] MgCl2. […] 10. Data analysis: The peak area of the corresponding compound and internal standard was detected by LC-MS/MS, and the T1/2 of the compound was calculated by the following formula: […]

Item: NC(=O)c1cccc2cn(-c3ccc([C@@H]4CCCNC4)cc3)nc12 [Niraparib, reference compound] | half-life at 1 μM: 1.83 h

Item: NC(=O)c1cccc2cn(-c3ccc([C@]4(F)CCCNC4)cc3)nc12 (single isomer, unassigned) | half-life at 1 μM: 1.02 h
